- test-system: TDP-43 (Homo sapiens, UniProt Q13148 1-414)
- Sequence (Q13148 whole entry): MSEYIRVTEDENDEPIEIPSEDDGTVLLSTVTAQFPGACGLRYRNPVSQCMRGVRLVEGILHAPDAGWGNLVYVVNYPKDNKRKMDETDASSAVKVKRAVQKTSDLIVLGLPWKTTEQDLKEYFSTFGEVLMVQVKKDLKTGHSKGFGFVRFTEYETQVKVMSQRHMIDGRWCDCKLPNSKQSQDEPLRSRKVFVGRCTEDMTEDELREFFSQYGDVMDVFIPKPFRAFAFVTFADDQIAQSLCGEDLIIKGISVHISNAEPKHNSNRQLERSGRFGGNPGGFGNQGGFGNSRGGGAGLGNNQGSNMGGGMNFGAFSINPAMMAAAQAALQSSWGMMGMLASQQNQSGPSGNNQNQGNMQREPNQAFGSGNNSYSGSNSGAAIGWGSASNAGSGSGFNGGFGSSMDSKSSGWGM
- experiment-description: RNA Bind-n-Seq with designed 260-mer pool; 25 mM Tris-HCl, 150 mM KCl, 3 mM MgCl2, BSA (printed 500 mg/mL), 20 units/mL SUPERase IN; pH not stated; 500 nM RNA pool, 1 h, 4 C; TDP-43 5, 50, 500 nM; high values mean tight binding
- reported-conditions: protein: recombinant; tags: SBP (GST cleaved off with PreScission; pGEX-GST-SBP)
In all, about 9,900 sequences were measured (“r (bound/input frequency ratio)”: median about 0.7, highest 2% from about 6.5 on). What follows is part of a selection rich in the highest values, with near analogues and random picks from the rest.
property-label: binding signal

Study these solved cases before continuing.
binder	value-measured
ENSMUSG00000029028.154|Lrrc47 (ssRNA) RNA: GGGAGUUCUACAGUCCGACGAUCGCUUCGAUAUCCGCAUGCUAGCUUGUUUCCAGGCACCGUGCUGCCGCCAUGCUCCCAGGGCAGCAUCUGCCUUCCACGGCUGUGCUUGGAACUGUAGUGCUGGUCGUUGUUGGCACAUCUGCGCCUUGGCCAAGGAAGUUAUCUAUGUCCGUGUAGUCCUUUGUAGUCAGACAGAUGCUUCGUGGACUGUGCCUCACACAUGGCCCUGCAGGCUCCAUGUCAGCGUGUCCCACUAUUCAUGUCCCAUCUCUGUGCAUCCUGACUGCGCACAUCCCAUCUCCUCUUGCGGUCGCACUAGUGUGGAAUUCUCGGGUGUCAAGG	1.62 R (bound/input frequency ratio)
ENSMUSG00000058297.41|Spock2 (ssRNA) RNA: GGGAGUUCUACAGUCCGACGAUCGCUUCGAUAUCCGCAUGCUAGGGAGUGUGGCUUGUGUGUAUGUGUGAUAUGAGAUGUGUGUGUAUGAUGUGAGAUGUGAGUGUGUGAUGUGAGAUGUGUGUAUGUGAGAUGUGUGUGUGUGUGUGUGUGUGUGUGAUGUGAGUCACCCAAAGGUCCCUAUGUUAUUGAUUUUCAAAUGCACACUUUCACACACAAGGAUACACUAACAGACCAAAAUCAAUGAGAUGUCCCUGAUCCUGCCCCUCAGCCCAACACCUGGAAUCCCUGCCCUGCCUAAUCACUCUUGCGGUCGCACUAGUGUGGAAUUCUCGGGUGUCAAGG	5.21 R (bound/input frequency ratio)
ENSMUSG00000090935.669|Synj2bp (ssRNA) RNA: GGGAGUUCUACAGUCCGACGAUCGCUUCGAUAUCCGCAUGCUAUGGAGUGAGAUGAGUGUGUGCCAGCCAGCAACUCUGUCCUUCUAGGUAACUGGUUCAUGCUGAACCUUGAGAUUCACCACUGUCAGGAGCUCUCUCUCUCUGCUUAGAAUCAUCCAGACAGCGGGCUGGUCAGCCCACAUUAAAUAAGAACAUGUGGGACUAGAAUUCAGUCAACAAUGACAUGUUUCAUCAGGUGGUUAAAAUGUACAGAUUCUGUUGGAAAUGUUCCAUGGUAUUUCAAUAGCCAGAAUGAAGAACUGCUCUUGCGGUCGCACUAGUGUGGAAUUCUCGGGUGUCAAGG	1.53 R (bound/input frequency ratio)
ENSMUSG00000058297.38|Spock2 (ssRNA) RNA: GGGAGUUCUACAGUCCGACGAUCGCUUCGAUAUCCGCAUGCUAUCCAGUGGGGGAGGACUGGGGAGUGUGGCUUGUGUGUAUGUGUGAUAUGAGAUGUGUGUGUAUGAUGUGAGAUGUGAGUGUGUGAUGUGAGAUGUGUGUAUGUGAGAUGUGUGUGUGUGUGUGUGUGUGUGUGAUGUGAGUCACCCAAAGGUCCCUAUGUUAUUGAUUUUCAAAUGCACACUUUCACACACAAGGAUACACUAACAGACCAAAAUCAAUGAGAUGUCCCUGAUCCUGCCCCUCAGCCCAACACCUGGAAUCUCUUGCGGUCGCACUAGUGUGGAAUUCUCGGGUGUCAAGG	6.55 R (bound/input frequency ratio)
ENSMUSG00000028439.88|Fam219a (ssRNA) RNA: GGGAGUUCUACAGUCCGACGAUCGCUUCGAUAUCCGCAUGCUAGGAAAGGGGUUUUGAGAAGAAAAGGAUCCAAGCAAUGGGGGCAGUUCUCACACCUCAGAGCCCCUCUCCCCAAACCCUGUGCCAGCCCAUAUACCUAUUUGUGUUUUCCCCUCAUCUCCAGAUGGGAAGCCUGGCAGCGCUGUCCAAAGGGAUACUGUCUCUCCAUUAGAUAACUCCUUCCACUGUCUCCCUCCCCCGCUUUCUUACUUUCUGAGGGUUGGGAAGGUAAGAUGGGCCUUAGAGAGAAGCCAGGUUUGGGGCUCUUGCGGUCGCACUAGUGUGGAAUUCUCGGGUGUCAAGG	0.765 R (bound/input frequency ratio)
ENSMUSG00000031028.648|Tub (ssRNA) RNA: GGGAGUUCUACAGUCCGACGAUCGCUUCGAUAUCCGCAUGCUACCAGGUAGAGCAGAUGAGGCUGAAAUGUAGAGUGUUCUAUAGAGCAUCUCAGUAGCAUAGAAGGAGAAGCCCAGCUCCAACCUCCUGGACCCCAUACUGGUGACCAGCUUGGUGAGGACAGGCAAAAUUUCUCUAGCUGAGAGCACACUUAGCCAGUUUUCACGCCUAGAACAUAUAUGUCGAUUUGCACAUGAUUGUCUUUUCCUAUUUUGGAGUGGUCAGACAUUUUAUUUUUGUUCAAAAUUAUCUGGAGUUUUAGACUCUUGCGGUCGCACUAGUGUGGAAUUCUCGGGUGUCAAGG	0.252 R (bound/input frequency ratio)

Now, please, on to the next binder.
Lookup: Note binding signal for the binder shown: ENSMUSG00000058297.40|Spock2 (ssRNA) RNA: GGGAGUUCUACAGUCCGACGAUCGCUUCGAUAUCCGCAUGCUAGGACUGGGGAGUGUGGCUUGUGUGUAUGUGUGAUAUGAGAUGUGUGUGUAUGAUGUGAGAUGUGAGUGUGUGAUGUGAGAUGUGUGUAUGUGAGAUGUGUGUGUGUGUGUGUGUGUGUGUGAUGUGAGUCACCCAAAGGUCCCUAUGUUAUUGAUUUUCAAAUGCACACUUUCACACACAAGGAUACACUAACAGACCAAAAUCAAUGAGAUGUCCCUGAUCCUGCCCCUCAGCCCAACACCUGGAAUCCCUGCCCUGCCCUCUUGCGGUCGCACUAGUGUGGAAUUCUCGGGUGUCAAGG
Found: 8.17 R (bound/input frequency ratio)
